pIC50: −log10 of the molar value.
Below are pIC50 measurements against HPK1 (Homo sapiens (Human), UniProt Q92918) drawn from the literature.

{"compound": "Cn1ccc2c(-c3ncc(Nc4ccc(N5CCC[C@@H](C(C)(C)O)C5)cn4)c4c3CNC4=O)ccnc21", "target_desc": "HPK1 (Homo sapiens (Human), UniProt Q92918)", "pIC50": "> 7.00"}
{"compound": "C/C(Nc1cc(C)n(CCC(C)C)n1)=C1/C(=O)Nc2cnc(-c3cnccc3C)cc21", "target_desc": "HPK1 (Homo sapiens (Human), UniProt Q92918)", "pIC50": "> 7.30"}
{"compound": "CC(C)N(C)Cc1nc(Nc2ccc(-c3cnc4cc(F)ccn34)c3c2C(=O)NC3)ccc1C1CCOC1 (stereo in doubt)", "target_desc": "HPK1 (Homo sapiens (Human), UniProt Q92918)", "pIC50": "> 7.00"}
{"compound": "N#Cc1c[nH]c(=O)c2c(Nc3ccc(N4CCC(O)CC4)cn3)cc(-c3c(F)cccc3F)nc12", "target_desc": "HPK1 (Homo sapiens (Human), UniProt Q92918)", "pIC50": "6.00 to 7.00"}
{"compound": "Cc1cccc(F)c1-c1cc2c(-c3ccc4c(c3)OCC3CN(C)CCN43)n[nH]c2cn1 (stereo not drawn)", "target_desc": "HPK1 (Homo sapiens (Human), UniProt Q92918)", "pIC50": "7.00 to 8.00"}
{"compound": "CC(C)c1nc2c(N3C[C@H](N)C4(COC4)C3)c(NC(=O)c3ccc(=O)n(-c4c(F)cccc4F)n3)ccc2n1C", "target_desc": "HPK1 (Homo sapiens (Human), UniProt Q92918)", "pIC50": "> 7.00"}
{"compound": "O=c1[nH]ccc2nc(C3CCOCC3)cc(Nc3ccc(N4CCC(O)CC4)cn3)c12", "target_desc": "HPK1 (Homo sapiens (Human), UniProt Q92918)", "pIC50": "≥ 7.00"}
{"compound": "Cc1cc(-c2cnc(N)c(OCc3ccnc(N)c3C)n2)cc2c1CCN(C)C2", "target_desc": "HPK1 (Homo sapiens (Human), UniProt Q92918)", "pIC50": 7.80}

Give pIC50 (HPK1 (Homo sapiens (Human), UniProt Q92918)) of the following compound: Cn1ccc2c(-c3ncc(Nc4ccc(N5CCC[C@H](C(C)(C)O)C5)cn4)c4c3CNC4=O)cccc21 > 7.00

Lab note: need pIC50 with HPK1 (Homo sapiens (Human), UniProt Q92918) for entry Cc1cccn2c(-c3ccc(Nc4ccc(N5CCN(C)CC5)cn4)c4c3CNC4=O)cnc12 , please look it up. > 7.00

What pIC50 appears in the records for this compound with HPK1 (Homo sapiens (Human), UniProt Q92918)? CN(C)[C@H]1CCCc2ccc(Nc3ccc(-c4cnc5cc(F)ccn45)c4c3C(=O)NC4)nc21 6.00 to 7.00

Record lookup: for HPK1 (Homo sapiens (Human), UniProt Q92918), what pIC50 belongs to Cc1c(-c2cc3nc(Nc4ccc5c(c4)CN(C(C)C)CC5)ncc3c(N)c2F)cnc2c1NCCO2 ? 10.49

Short answer please: pIC50, HPK1 (Homo sapiens (Human), UniProt Q92918), entry COc1ccc(F)cc1-n1nccc(C(=O)Nc2ccc3c(nc(C)n3C)c2N2CC[C@H](N)C2)c1=O > 7.00

Item CC(C)c1nc2c(N3C[C@@H]4[C@H](N)[C@@H]4C3)c(NC(=O)c3ccc(=O)n(-c4c(F)cccc4F)n3)cc(F)c2n1C with HPK1 (Homo sapiens (Human), UniProt Q92918) - pIC50? > 7.00

Entry Cn1c(C2CC2)nc2c(N3CC[C@@H](N)C3)c(NC(=O)c3ccc(=O)n(-c4c(F)cccc4F)n3)ccc21 , system HPK1 (Homo sapiens (Human), UniProt Q92918): what pIC50 was measured? > 7.00
